Each entry below lists one item and its recorded MIC value.
tested on: M. abscessus (ATCC 19977); assay: MIC by broth microdilution, M. abscessus in cation adjusted Mueller Hinton broth; format: cell-based; details: Mycobacteroides abscessus, ATCC19977, 96 h; ATCC 19977; cation adjusted Mueller Hinton broth without growth supplement; 30° C., 4 days; read-out: MIC M. abscessus MH
Enter your answer as a number in µg/mL; do not include the unit.

1. CO[C@H]1/C=C/O[C@@]2(C)Oc3c(C)c(O)c4c(c3C2=O)C2=NC3(CCN(CC(C)C)CC3)NC2=C(NC(=O)/C(C)=C\C=C\[C@H](C)[C@H](O)[C@@H](C)[C@@H](O)[C@@H](C)[C@H](OC(=O)N2CCC3(CCN(CCC(C)C)CC3)CC2)[C@@H]1C)C4=O ... 0.25

Proceed to the following item.
Which MIC is listed for `CO[C@H]1/C=C/O[C@@]2(C)Oc3c(C)c(O)c4c(c3C2=O)C2=NC3(CCN(CC(C)C)CC3)NC2=C(NC(=O)/C(C)=C\C=C\[C@H](C)[C@H](O)[C@@H](C)[C@@H](O)[C@@H](C)[C@H](OC(=O)N2CCN(CCN3CCCCC3)CC2)[C@@H]1C)C4=O` ?
1

====

System: M. abscessus (ATCC 19977)
Test: MIC by broth microdilution, M. abscessus in cation adjusted Mueller Hinton broth
Format: cell-based
Settings: Mycobacteroides abscessus, ATCC19977, 96 h; ATCC 19977; cation adjusted Mueller Hinton broth without growth supplement; 30° C., 4 days; read-out: MIC M. abscessus MH
Method: MIC values were determined by broth microdilution method according to the CLSI guidelines with the following exceptions: MIC against A. baumannii was performed in RPMI medium supplemented with 10% FCS and MIC against M. abscessus was performed in Middlebrook 7H9 broth supplemented with Middlebrook ADC growth supplement (10%; see column “M. abscessus 7H9”). […]
property_label: MIC (µg/mL)
Enter your answer as a number in µg/mL; do not include the unit.

1) CO[C@H]1/C=C/O[C@@]2(C)Oc3c(C)c(O)c4c(c3C2=O)C2=NC3(CCN(CC(C)C)CC3)NC2=C(NC(=O)/C(C)=C\C=C\[C@H](C)[C@H](O)[C@@H](C)[C@@H](O)[C@@H](C)[C@H](OC(=O)N2CCN(C)CC2)[C@@H]1C)C4=O ... 4

Which MIC is listed for CO[C@H]1/C=C/O[C@@]2(C)Oc3c(C)c(O)c4c(c3C2=O)C2=NC3(CCN(CC(C)C)CC3)NC2=C(NC(=O)/C(C)=C\C=C\[C@H](C)[C@H](O)[C@@H](C)[C@@H](O)[C@@H](C)[C@H](OC(=O)N2CCC3CCCCC3C2)[C@@H]1C)C4=O (some centres unmarked) ?
4

====

Each entry below lists one item and its recorded MIC value.
test system: A. baumannii (HUMC1 strain); assay: MIC by broth microdilution, A. baumannii (RPMI + 10% FCS); type: cell-based; settings: Acinetobacter baumannii; HUMC1 strain; RPMI medium + 10% FCS; 35° C., 20 hours; read-out: MIC A. baumannii
Enter your answer as a number in µg/mL; do not include the unit.

Worked cases, answers included:
1. CO[C@H]1/C=C/O[C@@]2(C)Oc3c(C)c(O)c4c(c3C2=O)C2=NC3(CCN(CC(C)C)CC3)NC2=C(NC(=O)/C(C)=C\C=C\[C@H](C)[C@H](O)[C@@H](C)[C@@H](O)[C@@H](C)[C@H](OC(=O)N2CCC3(CCN(CC5CCCCC5)C3)C2)[C@@H]1C)C4=O (stereo partly shown) ... 0.06
2. CO[C@H]1/C=C/O[C@@]2(C)Oc3c(C)c(O)c4c(c3C2=O)C2=NC3(CCN(CC(C)C)CC3)NC2=C(NC(=O)/C(C)=C\C=C\[C@H](C)[C@H](O)[C@@H](C)[C@@H](O)[C@@H](C)[C@H](OC(=O)N2CCCC3(CN(CC5CCCCC5)C3)C2)[C@@H]1C)C4=O ... 0.004
3. CO[C@H]1/C=C/O[C@@]2(C)Oc3c(C)c(O)c4c(c3C2=O)C2=NC3(CCN(CC(C)C)CC3)NC2=C(NC(=O)/C(C)=C\C=C\[C@H](C)[C@H](O)[C@@H](C)[C@@H](O)[C@@H](C)[C@H](OC(=O)N2CCN(c3nccs3)CC2)[C@@H]1C)C4=O ... 0.03

Proceed to the following item.
Which MIC is listed for CO[C@H]1/C=C/O[C@@]2(C)Oc3c(C)c(O)c4c(c3C2=O)C2=NC3(CCN(CC(C)C)CC3)NC2=C(NC(=O)/C(C)=C\C=C\[C@H](C)[C@H](O)[C@@H](C)[C@@H](O)[C@@H](C)[C@H](OC(=O)N2CCC3CCCCC3C2)[C@@H]1C)C4=O (stereo partly shown) ?
0.5
